Answer each item with its documented GI50.
Test system: HOP-62 NSCLC
test_method_notes: NCI tumour cell line growth inhibition, 48 h

Record `Cc1cc(I)cc(CN(C)CCCCN2CCCCC2)c1O` , field GI50: 14.4 µM

Record `O=C1C(Cl)=C(Nc2cccc(Cl)c2)C(=O)N1Cc1ccc(Cl)cc1Cl` , field GI50: 5.61 µM

Record `CC1(C)CCc2c(c3c(c4c(=O)c(O)c(-c5ccc(O)cc5)oc24)OC(C)(C)CC3)O1` , field GI50: 24.8 µM

Record `Cc1ccc(NC2=C(Cl)C(=O)N(Cc3ccccc3)C2=O)cc1O` , field GI50: 34.8 µM

Record CC[C@@]1(O)C[C@H](OC2CC(N(C)C)C(O)C(C)O2)c2c(O)c3c(c(O)c2[C@H]1OC1CC(N(C)C)C(O)C(C)O1)C(=O)c1cccc(O)c1C3=O (stereo partly specified) , field GI50: < 0.01 µM

Record `Cn1cc(C2=C(c3cn(C)c4ncccc34)C(=O)NC2=O)c2ccccc21` , field GI50: 10.9 µM
